- Test system: 6C3HED lymphosarcoma
- PROTOCOL: animal or person
- Assay type: in vivo
- MEASUREMENT PARAMETERS: oral, 200 mg/kg, BIDX 8

COMPOUND: Cc1ccc(S(=N)(=O)NC(=O)Nc2ccc(Cl)cc2)cc1 (stereo not shown)
TGT: 6C3HED lymphosarcoma
Tox/Tot (mice which died / total): 0/10
//
COMPOUND: CN=S(=O)(NC(=O)Nc1ccc(Cl)cc1)c1ccc(C)cc1 (stereo not shown)
TGT: 6C3HED lymphosarcoma
Tox/Tot (mice which died / total): 0/10
//
COMPOUND: NS(=O)(=NC(=O)Nc1ccc(Cl)cc1)c1ccc(Cl)cc1 (stereo not shown)
TGT: 6C3HED lymphosarcoma
Tox/Tot (mice which died / total): 10/10
//
COMPOUND: Cc1cc(C)cc(S(N)(=O)=NC(=O)Nc2ccc(Cl)cc2)c1 (stereo not shown)
TGT: 6C3HED lymphosarcoma
Tox/Tot (mice which died / total): 0/10

* * *

- Tested on: 6C3HED lymphosarcoma
- PROTOCOL: animal or person
- Type: in vivo
- MEASUREMENT PARAMETERS: oral, 300 mg/kg, BIDX 8
ASSAY METRIC: Tox/Tot (mice which died / total)

COMPOUND: Cc1ccc(S(=O)(=NC(=O)Nc2ccc(Cl)cc2)NCC(C)C)cc1 (stereo not drawn)
ASSAY METRIC: Tox/Tot (mice which died / total)
VALUE: 10/10
//
COMPOUND: Cc1ccc(S(=O)(=NC(C)C)NC(=O)Nc2ccc(Cl)cc2)cc1 (stereo not drawn)
ASSAY METRIC: Tox/Tot (mice which died / total)
VALUE: 2/10
//
COMPOUND: CCCCCCNS(=O)(=NC(=O)Nc1ccc(Cl)cc1)c1ccc(C)cc1 (stereo not drawn)
ASSAY METRIC: Tox/Tot (mice which died / total)
VALUE: 2/10
//
COMPOUND: NS(=O)(=NC(=O)Nc1ccc(Cl)cc1)c1ccc(CO)cc1 (stereo not drawn)
ASSAY METRIC: Tox/Tot (mice which died / total)
VALUE: 9/10
//
COMPOUND: CNS(=O)(=NC(=O)N(C)c1ccc(Cl)cc1)c1ccc(C)cc1 (stereo not drawn)
ASSAY METRIC: Tox/Tot (mice which died / total)
VALUE: 0/10
//
COMPOUND: Cc1ccc(S(N)(=O)=NC(=O)N(C)c2ccc(Cl)cc2)cc1 (stereo not drawn)
ASSAY METRIC: Tox/Tot (mice which died / total)
VALUE: 0/10
//
COMPOUND: CC(=O)OCc1ccc(S(=N)(=O)NC(=O)Nc2ccc(Cl)cc2)cc1 (stereo not drawn)
ASSAY METRIC: Tox/Tot (mice which died / total)
VALUE: 3/10
//
COMPOUND: Cc1ccc(S(=O)(=NC(=O)Nc2ccc(Cl)cc2)NCCc2ccccc2)cc1 (stereo not drawn)
ASSAY METRIC: Tox/Tot (mice which died / total)
VALUE: 0/10
//
COMPOUND: Cc1ccc(S(=O)(=NC(=O)Nc2ccc(Cl)cc2)NCCCO)cc1 (stereo not drawn)
ASSAY METRIC: Tox/Tot (mice which died / total)
VALUE: 2/10
//
COMPOUND: Cc1ccc(S(=N)(=O)NC(=O)Nc2ccc(Br)cc2)cc1 (stereo not drawn)
ASSAY METRIC: Tox/Tot (mice which died / total)
VALUE: 3/10
//
COMPOUND: CC(=O)NS(=O)(=NC(=O)Nc1ccc(Cl)cc1)c1ccc(C)cc1 (stereo not drawn)
ASSAY METRIC: Tox/Tot (mice which died / total)
VALUE: 0/10
//
COMPOUND: Cc1ccc(S(=O)(=NC(=O)Nc2ccc(Cl)cc2)NCc2ccccc2)cc1 (stereo not drawn)
ASSAY METRIC: Tox/Tot (mice which died / total)
VALUE: 1/10
//
COMPOUND: Cc1ccc(S(=N)(=O)NC(=O)Nc2ccc(Cl)cc2)cc1C (stereo not drawn)
ASSAY METRIC: Tox/Tot (mice which died / total)
VALUE: 10/10
//
COMPOUND: Cc1cc(S(N)(=O)=NC(=O)Nc2ccc(Cl)cc2)cc(C)c1Cl (stereo not drawn)
ASSAY METRIC: Tox/Tot (mice which died / total)
VALUE: 0/10
//
COMPOUND: NS(=O)(=NC(=O)Nc1ccc(Cl)cc1)c1ccc(Br)cc1 (stereo not drawn)
ASSAY METRIC: Tox/Tot (mice which died / total)
VALUE: 10/10
